TARGET_OF_ASSAY: Recombinant mouse PD-L1 (Mus musculus, UniProt Q9EP73)
Construct: Fc (Fc chimera); purchased R&D Systems 1019-B7-100
Sequence (Q9EP73 with tags, fused parts or gaps limits assumed): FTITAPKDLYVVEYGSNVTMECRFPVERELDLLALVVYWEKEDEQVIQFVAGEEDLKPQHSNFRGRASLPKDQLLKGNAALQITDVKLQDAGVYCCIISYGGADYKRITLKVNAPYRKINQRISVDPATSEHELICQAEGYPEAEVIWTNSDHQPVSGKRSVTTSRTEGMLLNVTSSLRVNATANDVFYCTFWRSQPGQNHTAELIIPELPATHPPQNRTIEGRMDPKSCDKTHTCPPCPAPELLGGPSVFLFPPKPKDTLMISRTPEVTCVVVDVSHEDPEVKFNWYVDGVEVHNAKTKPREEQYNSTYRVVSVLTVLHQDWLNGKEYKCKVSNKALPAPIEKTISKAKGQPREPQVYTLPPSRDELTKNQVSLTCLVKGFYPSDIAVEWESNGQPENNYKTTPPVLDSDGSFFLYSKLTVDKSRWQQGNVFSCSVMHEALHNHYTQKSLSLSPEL
METHOD_DESCRIPTION: Rescue of mouse splenocyte proliferation in the presence of recombinant PD-L1 (CFSE proliferation assay)
Type: cell-based
CONDITION_NOTES: 100 nM compound; anti-CD3/CD28 stimulated C57 BL6 mouse splenocytes with PD-L1; 72 h; stimulated splenocyte proliferation = 100%; read-out: Percent rescue of splenocyte proliferation (@100 nM compound concentration)
Consider the following partition of reported activation at 0.1 µM into named classes: label 0 = under 30%, label 1 = from 30% up to 70%, label 2 = 70% and over

> print(dat)
                                   compound  discrete.label
1  NC(=O)C[C@H](NC(=O)N[C@@H](CC(=O)O)C(=O)O)c1nnc([C@@H](N)CO)o1         label 1

Pick a category. Item: CC(O)[C@H](NC(=O)N[C@@H](CCC(=O)O)c1nnc([C@@H](N)CCCCN)o1)C(=O)O (some centres unmarked)
label 1

Pick a category. Item: CC(O)[C@H](NC(=O)N[C@H](c1nnc([C@@H](N)C(C)O)o1)C(C)O)C(=O)O (some centres unmarked)
label 0

Returns: class label. Input: CC(O)[C@H](NC(=O)N[C@@H](Cc1ccccc1)c1nnc([C@@H](N)CO)o1)C(=O)O (some centres unmarked)
label 0

Note: place this compound into its band. Item: "NC(=O)CC[C@H](NC(=O)N[C@@H](CO)c1nnc([C@@H](N)Cc2c[nH]c3ccccc23)o1)C(=O)O"
label 2

Returns: class label. Input: CCC(C)[C@H](NC(=O)N[C@H](C(=O)O)C(C)O)c1nnc([C@@H](N)CO)o1 (some centres unmarked)
label 0

Which activation at 0.1 µM band matches CSC[C@H](N)c1nnc([C@H](CC(N)=O)NC(=O)N[C@H](C(=O)O)C(C)O)o1 (some centres unmarked) ?
label 1

For "NCCCC[C@H](N)c1nnc([C@H](CC(N)=O)NC(=O)N[C@@H](CCC(=O)O)C(=O)O)o1" , which activation at 0.1 µM bin applies?
label 2

Place this compound in its band: "N[C@@H](CO)c1nnc([C@H](Cc2c[nH]c3ccccc23)NC(=O)N[C@@H](CC(=O)O)C(=O)O)o1"
label 1
